# assayNotes: qHTS assay to identify small molecule agonists of the vitamin D receptor (VDR) signaling pathway - cell viability counter screen (AID 743224); further: nearly all actives have a fitted effect of over 50% in size; further: potency means the concentration at half of the fitted maximal effect
# conditionSet: VDR-bla HEK293T viability, CellTiter-Glo luminescence, 16 h; series mostly up to 62.6 µM
Records with an inconclusive call do not appear. The source made the active and inactive calls. The call rests on the fitted dose curve; in most records, active means well fitted cell-killing curve with a large enough effect in the repeat runs; inconclusive means weak or mixed curves, or effect the other way; inactive means no such curve, though single readings can be large or run the other way.
resultType: Potency

# annotated cases, reported Potency shown
N#CCCl: inactive
ClSC(Cl)(Cl)Cl: inactive
C[N+]1(C)[C@@H]2CC[C@H]1CC(OC(=O)C(CO)c1ccccc1)C2 (some centres undefined): inactive
Clc1ccc(C2(Cn3cncn3)OCCO2)c(Cl)c1: inactive
CN(C)CCc1c[nH]c2ccccc12: inactive
O=S1OCC2C(CO1)C1(Cl)C(Cl)=C(Cl)C2(Cl)C1(Cl)Cl (centres undefined): 38.9 µM (active)
c1csc(-c2ccc(-c3cccs3)s2)c1: inactive
CNC(C)(C)Cc1ccccc1: inactive
Cc1cccc(Cc2cnc[nH]2)c1C: inactive
CN: inactive

Can you look up the measured Potency of N#Cc1c[nH]cc1-c1cccc2c1OC(F)(F)O2 for me?
inactive

Record request: Potency value, item O=C1C[C@@H]2OCC=C3CN4CC[C@]56c7ccccc7N1[C@H]5[C@H]2[C@H]3C[C@H]46
inactive

What measured Potency goes with Oc1cc(Cl)c(Cl)c(Cl)c1Cl ?
24 µM (active)

// query Potency value for entry CC(C)C(Br)C(=O)NC(N)=O (centres undefined)
inactive

----------
# studySystem: Cytochrome P450 2C19 (Homo sapiens) (UniProt P33261)
# Sequence (P33261 whole entry, looked up): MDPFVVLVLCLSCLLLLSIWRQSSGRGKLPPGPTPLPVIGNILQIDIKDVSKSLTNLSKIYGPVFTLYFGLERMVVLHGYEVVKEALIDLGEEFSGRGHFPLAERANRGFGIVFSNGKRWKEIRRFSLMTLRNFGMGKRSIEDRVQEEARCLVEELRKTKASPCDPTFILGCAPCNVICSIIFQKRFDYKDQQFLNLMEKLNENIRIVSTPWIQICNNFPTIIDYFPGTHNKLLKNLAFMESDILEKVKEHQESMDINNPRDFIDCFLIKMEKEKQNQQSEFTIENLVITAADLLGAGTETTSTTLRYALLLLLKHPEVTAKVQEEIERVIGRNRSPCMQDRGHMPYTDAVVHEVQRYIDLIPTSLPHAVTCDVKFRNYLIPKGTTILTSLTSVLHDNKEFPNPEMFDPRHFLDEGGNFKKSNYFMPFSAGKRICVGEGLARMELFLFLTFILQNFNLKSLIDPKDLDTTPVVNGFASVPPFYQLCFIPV
# assayNotes: Cytochrome P450 Family 2 Subfamily C Member 19 (CYP2C19) small molecule antagonists: luciferase reporter qHTS assay (AID 1671197); further: nearly all actives have a fitted effect of over 65% in size
# conditionSet: P450-Glo CYP2C19 enzyme, luciferin luminescence, 1 h; series mostly up to 115 µM
Records with an inconclusive call do not appear. Activity calls are given as the source filed them. Calls come from the whole dose curve; as a rule, active = well fitted inhibition curve with a large enough effect in the repeat runs; inconclusive = weak or mixed curves; inactive = no such curve, though single readings can be large or run the other way.
Choose the fitting class; nothing outside Y (active), N (inactive) is accepted.

Examples with answers:
Cc1cc2c3c(c1)C(c1ccccc1)=N[C@@H](NC(=O)c1ccncc1)C(=O)N3CC2: Y
CCCCN(CCCC)C(=S)[S-].CCCCN(CCCC)C(=S)[S-].[Ni+2]: N
Oc1cc(Cl)c(Cl)c(Cl)c1Cl: N
CC#C[C@]1(O)CC[C@H]2[C@@H]3C[C@H](C)C4=CC(=O)CC[C@]4(C)[C@H]3CC[C@@]21C: Y

Assay result, entry O=Cc1ccccc1 — outcome?
N

How was CC(C)[C@@H](Nc1ccc(C(F)(F)F)cc1Cl)C(=O)OC(C#N)c1cccc(Oc2ccccc2)c1 (stereo partly specified) classified in this test?
Y

Recorded test call requested for CCCCc1ccccc1
N

Recorded test outcome, item O=[N+]([O-])c1ccc(Cl)c(Cl)c1Cl
Y

Tell me the assay call for C[C@]12C/C(=C/O)C(=O)C[C@@H]1CC[C@@H]1[C@@H]2CC[C@@]2(C)[C@H]1CC[C@]2(C)O please.
N

Hi, sorry to bother you, what did the test record for CC(O)C(=O)[O][Hg][c]1ccccc1 (stereo unspecified) ?
Y

Dear all, I need the recorded test outcome for C#CC1(O)CCCCC1 , thank you.
N

----------
# assayNotes: qHTS assay to identify small molecule agonists of the constitutive androstane receptor (CAR) signaling pathway - cell viability counter screen (AID 1224836); further: nearly all actives have a fitted effect of over 45% in size
# conditionSet: HepG2-CYP2B6-hCAR viability, CellTiter-Fluor, 23 h, PK11195 added to every well; series mostly up to 92.4 µM
Records with an inconclusive call do not appear. Active and inactive are the calls of the source. Calls follow the shape of the dose curve; as a rule, active = well fitted cell-killing curve with a large enough effect in the repeat runs; inconclusive = weak or mixed curves, or effect the other way; inactive = flat fitted curve, though single readings scatter.
Your reply should match one of these outcome classes. Yes (active), No (inactive)

Nc1ccccc1-c1ccccc1: No
CC(Cc1ccc(O)cc1)NCC(O)c1cc(O)cc(O)c1 (configuration not stated): No

Query compound follows.
GET /call?item= CCCCN(CCCC)C(=S)S returns the recorded outcome of this test.
No

----------
# assayNotes: qHTS assay to identify small molecule agonists of the AP-1 signaling pathway - cell viability counter screen (AID 1159525); further: nearly all actives have a fitted effect of over 55% in size
# conditionSet: ME-180 (cervical carcinoma) AP-1-bla cells viability, ATP luminescence, 5 h; series mostly up to 76.8 µM
Records with an inconclusive call do not appear. Activity calls are given as the source filed them. Calls follow the shape of the full dose curve.
Write down one outcome, taken from active, inactive

C1=CCC=C1: inactive
[Cl-].[Cl-].[Cl-].[Yb+3]: inactive
O=C1C[C@@H]2OCC=C3CN4CC[C@]56c7ccccc7N1[C@H]5[C@H]2[C@H]3C[C@H]46: inactive
CCN(CC)C(=O)N[C@@H]1C=C2c3cccc4[nH]cc(c34)C[C@@H]2N(C)C1: inactive
CCOP(=O)(OCC)Oc1nc(Cl)c(Cl)cc1Cl: inactive
CO/N=C(/C1=NOCCO1)c1ccccc1Oc1ncnc(Oc2ccccc2Cl)c1F: inactive

Dear all, I need the recorded test outcome for COCCC#N , thank you.
inactive

Per the records of this test, what outcome belongs to CC(C)=CC1C(C(=O)OC(C#N)c2cccc(Oc3ccccc3)c2)C1(C)C (stereo not given) ?
inactive

Hi, do you know how CC(C)N(C(=O)CCl)c1ccccc1 came out in this test?
inactive

Status in this test for CC(Cc1ccc(OCC(=O)O)cc1)NCC(O)c1csc(C(F)(F)F)n1 (stereo not given) ?
inactive

Please let me know the test result on file for O=P(Cl)(Cl)Cl .
inactive

Short answer needed: outcome of this test for CN(C)c1ccc(N)cc1 ?
inactive

Lab log entry: NC1CCC(CC2CCC(N)CC2)CC1 (stereo not given) — outcome as called in the assay?
inactive

Hello, I am checking results. What call was entered for Oc1ccc(Cl)c(Cl)c1 ?
inactive

For Cc1nn(-c2cc(NS(C)(=O)=O)c(Cl)cc2Cl)c(=O)n1C(F)F , which call appears in the assay record?
inactive

What call does the record list for O=C(O)CCCCCCNC1c2ccccc2CCc2ccccc21 ?
inactive

Hi, do you know how CCN1CCC2(CC1)COc1cc3c(cc12)N(C(=O)c1ccc(-c2ccc(-c4nnc(C)o4)cc2C)cc1)CC3 came out in this test?
active

Test call, this compound: NC(=O)C(Cl)Cl
inactive

# lookup: test call for COC(=O)c1cc(Oc2ccc(Cl)cc2Cl)ccc1[N+](=O)[O-]
inactive

Just curious, what result did COc1cnc(OC)n2nc(NS(=O)(=O)c3c(OCC(F)F)cccc3C(F)(F)F)nc12 get here?
inactive

Per the records of this test, what outcome belongs to CC1=C2C[C@H]3[C@@H](CC=C4C[C@@H](O)CC[C@@]43C)[C@@H]2CC[C@]12O[C@@H]1C[C@H](C)CN[C@H]1[C@H]2C ?
inactive

Status in this test for CC[C@]1(O)CC[C@H]2[C@@H]3CCC4=CCCC[C@@H]4[C@H]3CC[C@@]21C ?
inactive

Call for entry COP(=O)(OC)Oc1ccc([N+](=O)[O-])cc1 :
inactive

For CN1[C@@H]2CC[C@H]1CC(O)C2 (stereo not given in full) , what call appears in the results of this test?
inactive

Hi, sorry to bother you, what did the test record for CC(C)=CCN1CC[C@@]2(C)c3cc(O)ccc3C[C@@H]1[C@@H]2C ?
inactive

----------
# studySystem: Androgen receptor (Homo sapiens)
# assayNotes: qHTS assay to identify small molecule agonists of the androgen receptor (AR) signaling pathway in the presence of an antagonist (AID 1259381); further: nearly all actives have a fitted effect of over 15% in size
# conditionSet: MDA-kb2 MMTV-luciferase, AR agonist + nilutamide, 16 h; series mostly up to 92.4 µM
Activity calls are given as the source filed them. Calls come from the whole dose curve.
Give one outcome, nothing more. List: 1 (yes) for active, 0 (no) for inactive

Solved cases below.
BrCC(Br)(Br)Br: 0 (no)
CC1=C2C[C@H]3[C@@H](CC=C4C[C@@H](O)CC[C@@]43C)[C@@H]2CC[C@]12O[C@@H]1C[C@H](C)CN[C@H]1[C@H]2C: 0 (no)
Nc1c(Cl)c(Cl)c(Cl)c(Cl)c1Cl: 1 (yes)
O=C1C(Cl)=C(Cl)C(=O)C(Cl)=C1Cl: 0 (no)
CCC(OC(C)=O)C(CC(C)NC)(c1ccccc1)c1ccccc1 (stereo not drawn): 0 (no)

Returns: the outcome recorded for CCCCCCC[CH2][Sn]([Cl])([Cl])[CH2]CCCCCCC in this assay.
0 (no)

Can you look up the reported call for Cc1nn(-c2cc(NS(C)(=O)=O)c(Cl)cc2Cl)c(=O)n1C(F)F for me?
0 (no)

Short answer needed: outcome of this test for Cc1ccccc1OP(=O)(Oc1ccccc1C)Oc1ccccc1C ?
0 (no)

Would you mind telling me which call this test gave O=S1OCC2C(CO1)C1(Cl)C(Cl)=C(Cl)C2(Cl)C1(Cl)Cl (stereo not drawn) ?
0 (no)

Each compound tested received a call. Report the one for [Cl][Hg][c]1ccccc1 .
0 (no)

Hi, sorry to bother you, what did the test record for O=c1[nH]c(Cl)c(Cl)cc1Cl ?
0 (no)

State the result this test recorded for N#Cc1sc2c(=O)c3ccccc3c(=O)c=2sc1C#N .
0 (no)

Recorded call for CC(Cc1ccccc1)N(C)Cc1ccco1 (stereo not drawn) ?
0 (no)

Write down the call the test reported for this compound. Item: CC(C)=CC1C(C(=O)OC(C#N)c2cccc(Oc3ccccc3)c2)C1(C)C (stereo not drawn)
0 (no)

I'd appreciate the recorded outcome for ClC1(Cl)C2(Cl)C3(Cl)C4(Cl)C(Cl)(Cl)C5(Cl)C3(Cl)C1(Cl)C5(Cl)C24Cl (stereo not drawn) from this test.
0 (no)

Hi, do you know how CCO/N=C(\CC)C1=C(O)CC(c2c(C)cc(C)cc2C)CC1=O (stereo not drawn) came out in this test?
0 (no)

Hi team, can someone confirm the assay call for CN(C)c1ccc(N)cc1 ?
0 (no)

Recorded test call requested for C[C@]12CC[C@H]3[C@@H](CCC4=CC(=O)CC[C@@H]43)[C@@H]1CC[C@@H]2OC(=O)CCc1ccco1
1 (yes)

Cited source for all entries: PubChem BioAssay (Tox21)
